Listed here: items and their measured Kd.
target: recombinant human alpha synuclein fibrils (human, UniProt P37840 1-140); assay: kinetics on alpha synuclein fibrils; method not named in Example 4 (ka1/kd1 as in the Biacore bivalent analyte model)
readout_kind: Kd (nM)

{"binder": "Antibody 5811gL14gH4 IgG4P (antibody, V domains shown) VH: EVQLVESGGGLVKPGGSLRLSCAASGFTFNNAAMYWVRQAPGKGLEWVARIRTKPNNYATSYADSVKGRFTISRDDSKNTLYLQMNSLKTEDTAVYYCTADYSRGDRWGQGTMVTVSS VL: DIQMTQSPSSLSASVGDRVTITCKASQNINKNLDWYQQKPGKAPKLLIYYANNLQTGVPSRFSGSGSGTDFTLTISSLQPEDFATYYCYQYKNAWTFGQGTKVEIKR", "readout_kind": "Kd", "value_unit": "nM", "value_observed": 0.0185}
{"binder": "Chimeric rat-human 5811 antibody (antibody, V domains shown, It was prepared like the humanized antibodies, with the human kappa constant region (Km3) and human gamma-4 with S241P (IgG4P); also called parental rat-human antibody) VH: EMQLVESGGGLVQPKESLKISCAASGFTFNNAAMYWVRQAPGKGLEWVARIRTKPNNYATSYADSVKGRFTISRDDSKSMVYLQMDNLKSEDTAMYYCTADYSRGDRWGQGVMVTVSS VL: NIQMTQSPPVLSASVGDRVTLSCKASQNINKNLDWYQQKHGEAPKLLMYYANNLQTGIPSRFSGSGSGTDYTLTISSLQPEDVATYYCYQYKNGWTFGGGTKLELK", "readout_kind": "Kd", "value_unit": "nM", "value_observed": 0.0156}
{"binder": "Antibody 5811gL8gH4 IgG4P (antibody, V domains shown) VH: EVQLVESGGGLVKPGGSLRLSCAASGFTFNNAAMYWVRQAPGKGLEWVARIRTKPNNYATSYADSVKGRFTISRDDSKNTLYLQMNSLKTEDTAVYYCTADYSRGDRWGQGTMVTVSS VL: DIQMTQSPSSLSASVGDRVTITCKASQNINKNLDWYQQKPGKAPKLLIYYANNLQTGVPSRFSGSGSGTDFTLTISSLQPEDFATYYCYQYKNGWTFGQGTKVEIKR", "readout_kind": "Kd", "value_unit": "nM", "value_observed": 0.0159}
{"binder": "Antibody 5811gL5gH4 IgG4P (antibody, V domains shown, also called VR5811) VH: EVQLVESGGGLVKPGGSLRLSCAASGFTFNNAAMYWVRQAPGKGLEWVARIRTKPNNYATSYADSVKGRFTISRDDSKNTLYLQMNSLKTEDTAVYYCTADYSRGDRWGQGTMVTVSS VL: DIQMTQSPSSLSASVGDRVTITCKASQNINKNLDWYQQKPGKAPKLLIYYANNLQTGVPSRFSGSGSGTDYTLTISSLQPEDFATYYCYQYKNGWTFGQGTKVEIKR", "readout_kind": "Kd", "value_unit": "nM", "value_observed": 0.015}
